Tested on: K5 (Thyroid Gland Carcinoma)
assay-comment: combination Emax (second highest fraction inhibited in the dose matrix, 72 h); higher = more inhibition; extreme values may be limits of the assay
endpoint-name: combination Emax

INSERT INTO assay_data (compound, measured_target, result) VALUES
  ('C=CCn1c(=O)c2cnc(Nc3ccc(N4CCN(C)CC4)cc3)nc2n1-c1cccc(C(C)(C)O)n1 [AZD1775] + CCc1c2c(nc3ccc(O)cc13)-c1cc3c(c(=O)n1C2)COC(=O)[C@]3(O)CC [SN-38] (first compound max 1 µM, partner max 0.3 µM)', 'K5 (Thyroid Gland Carcinoma)', 0.594),
  ('CS(=O)(=O)CCNCc1ccc(-c2ccc3ncnc(Nc4ccc(OCc5cccc(F)c5)c(Cl)c4)c3c2)o1 [Lapatinib] + Cn1cnc2c(F)c(Nc3ccc(Br)cc3Cl)c(C(=O)NOCCO)cc21 [Selumetinib] (first compound max 10 µM, 7x7, partner max 10 µM)', 'K5 (Thyroid Gland Carcinoma)', 0.597),
  ('O=C(c1cc(Cc2n[nH]c(=O)c3ccccc23)ccc1F)N1CCN(C(=O)C2CC2)CC1 [Olaparib] + COc1nnc2ccc(N3CCC(c4ccc(OCCN5CCN(C)C(=O)[C@H]5C)cc4)CC3)nn12 [AZD5153] (first compound max 10 µM, 7x7, partner max 1 µM)', 'K5 (Thyroid Gland Carcinoma)', 0.611),
  ('Cc1c2c(nn1C)CSCc1cc(n(C)n1)CSc1cc(c3ccccc3c1)OCCCc1c(C(=O)O)n(C)c3c-2c(Cl)ccc13 [AZD5991] + CS(=O)(=O)CCNCc1ccc(-c2ccc3ncnc(Nc4ccc(OCc5cccc(F)c5)c(Cl)c4)c3c2)o1 [Lapatinib] (first compound max 1 µM, 7x7, partner max 10 µM)', 'K5 (Thyroid Gland Carcinoma)', 0.237);

====

Each record here notes measured Bliss excess.
System: RPMI-6666 (Non-Cancerous);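 note: after 72 h of two-drug dosing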
assay-comment: Bliss excess, mean over the matrix (fraction); higher = more synergy
endpoint-name: Bliss excess

INSERT INTO results (compound, measured_target, endpoint_name, result_number) VALUES
  ('Cc1cc2ncnn2cc1Nc1ncc2c(n1)n(C1CCOCC1)c(=O)n2C [AZD7648] + COc1cc([C@@H]2c3cc4c(cc3[C@@H](O[C@@H]3O[C@@H]5CO[C@@H](C)O[C@H]5[C@H](O)[C@H]3O)[C@H]3COC(=O)[C@H]23)OCO4)cc(OC)c1O [Etoposide] (first compound max 10 µM, 7x7, partner max 10 µM)', 'RPMI-6666 (Non-Cancerous)', 'Bliss excess', 0.0224),
  ('NC1(C(=O)N[C@@H](CCO)c2ccc(Cl)cc2)CCN(c2ncnc3[nH]ccc23)CC1 [Capivasertib] + CCN(CCO)CCCOc1ccc2c(Nc3cc(CC(=O)Nc4cccc(F)c4)[nH]n3)ncnc2c1 [AZD2811] (first compound max 10 µM, 7x7, partner max 1 µM)', 'RPMI-6666 (Non-Cancerous)', 'Bliss excess', -0.133),
  ('C[C@@H]1COCCN1c1cc(C2([S@](C)(=N)=O)CC2)nc(-c2ccnc3[nH]ccc23)n1 [AZD6738] + Nc1ccn([C@@H]2O[C@H](CO)[C@@H](O)C2(F)F)c(=O)n1 [Gemcitabine] (first compound max 10 µM, 7x7, partner max 0.3 µM)', 'RPMI-6666 (Non-Cancerous)', 'Bliss excess', -0.034),
  ('CCc1c2c(nc3ccc(O)cc13)-c1cc3c(c(=O)n1C2)COC(=O)[C@]3(O)CC [SN-38] + O=C(c1cc(Cc2n[nH]c(=O)c3ccccc23)ccc1F)N1CCN(C(=O)C2CC2)CC1 [Olaparib] (first compound max 0.3 µM, 7x7, partner max 10 µM)', 'RPMI-6666 (Non-Cancerous)', 'Bliss excess', 0.0394);

Data origin: the supplement of paper PMC11061612
